- Measured on: T1, purified recombinant human VEGF165 (human, UniProt P15692 27-191, glycosylated)
- T1 construct: mature; Bought from Calbiochem; also called VEGF protein (Calbiochem); homodimeric VEGF protein
- Assay notes: SPR (BIAcore), purified scFv over VEGF immobilized on CM5 chip, 25 C
Outcome measure: koff (s⁻¹)
Numeric answer only, unit s⁻¹ assumed.

// known answers, use as guide
{"Binder": "hAB5 (scFv, Single chain format; not shown: HA-His6 tag at C-terminus) scFv: EVQLVQSGGGVVQPGGTLRLTCAASGYTFTNYGMNWVRQAPGKGLEWVGWINTYTGEPTYAADFKRRVTFSLDTSKSTAYLQMNSLRAEDTAVYYCAKYPHYYGSSHWYFDVWGQGTLVTVSSGGGGSGGGGSGGGGSDIQMTQSPSSLSASVGDRVTITCSASQDISNYLNWYQQKPGKAPKVLIYFTSSLHSGVPSRFSGSGSGTDFTLTISSLQPEDFATYYCQQYSTVPWTFGQGTKVEIK", "Outcome measure": "koff", "Result": "7.2e-05"}
{"Binder": "hAB3 (scFv, Single chain format; not shown: HA-His6 tag at C-terminus) scFv: EVQLVQSGGGVVQPGGSLRLSCAASGYTFTNYGMNWIRQAPGKGLEWVGWINTYTGEPTYAADFKRRVTFSLDTSKSTAYLQLNSLRAEDTAVYYCAKYPHYYGSSHWYFDVWGQGTLVTVSSGGGGSGGGGSGGGGSDIQMTQSPSSLSASVGDRVTITCSASQDISNYLNWYQQKPGKAPKVLIYFTSSLHSGVPSRFSGSGSGTDFTLTISSLQPEDFATYYCQQYSTVPWTFGQGTKVEIK", "Outcome measure": "koff", "Result": 0.000115}
{"Binder": "hAB9 (scFv, Single chain format; not shown: HA-His6 tag at C-terminus) scFv: EVQLVQSGGGVVQPGGSLRLSCAASGYTFTNYGMNWVRQAPGKGLEWVGWINTYTGEPTYAADFKRRFTFSLDTSKSTAYLQMNSLRAEDTAVYYCAKYPYYYGRSHWYFDVWGQGTLVTVSSGGGGSGGGGSGGGGSDIQLTQSPSSLSASAGDRVTISCSASQDISNYLNWYQQKPGKAPQLLIYFTSSLHSGVPSRFSGSGSGTDFTLTISSLQPEDFATYYCQQYSTVPWTFGQGTKVEIK", "Outcome measure": "koff", "Result": "1.4e-05"}

// next item, koff requested
For hAB12 (scFv, Single chain format; not shown: HA-His6 tag at C-terminus) scFv: EVQLVESGGGLVQPGGSLRLSCAASGYTFTNYGMNWVRQAPGKGLEWVGWINTYTGEPTYAADFKRRFTFSLDTSKSTAYLQMNSLRAEDTAVYYCAKYPYYYGRSHWYFDVWGQGTLVTVSSGGGGSGGGGSGGGGSDIQMTQSPSSLSASVGDRVTITCSASQDISNYLNWYQQKPGKAPKVLIYFTSSLHSGVPSRFSGSGSGTDFTLTISSLQPEDFATYYCQQYSTVPWTFGQGTKVEIK , what is its reported koff? 3e-06
